- Test system: NCI-H460 lung
- Protocol: NCI tumour cell line growth inhibition, 48 h
Recorded Endpoint: TGI

>>> value_observed("CCOC(=O)C(=Cn1c(=S)[nH]c2ccc([N+](=O)[O-])cc21)C(=O)OCC")
"> 100 µM"
>>> value_observed("O=C(C#Cc1cn(C2CC(O)C(CO)O2)c(=O)[nH]c1=O)c1ccccc1 (stereo not drawn)")
"> 100 µM"
>>> value_observed("CC(=N\\N=C\\c1ccccn1)/C(C)=N/N=C(C)/C(C)=N/N=C(C)/C(C)=N/N=C/c1ccccn1")
"> 100 µM"

---

- Test system: EKVX NSCLC
- Protocol: NCI tumour cell line growth inhibition, 48 h
# Lookup of reported TGI keyed by entry
Recorded Endpoint: TGI

>>> value_observed("CCOC(=O)C(NCc1cccc(C(F)(F)F)c1)(NC(=O)c1ccccc1)C(F)(F)F (stereo not given)")
"83.9 µM"
>>> value_observed("CC(C)(C)OC(=O)NCC(=O)N1CCCN(C(=O)CNC(=O)OC(C)(C)C)CC1")
"> 100 µM"
>>> value_observed("CC(C)(NC1=NCCO1)c1ccccc1")
"> 100 µM"
>>> value_observed("O=C(NN1C(=O)C=CC1=O)c1ccccc1Nc1ccccc1C(=O)NN1C(=O)C=CC1=O")
"> 100 µM"
>>> value_observed("O=C(Nc1cccc(-n2ccc3c(NC(=O)c4ccccc4)nccc32)c1)c1cc(N2CCOCC2)cc(C(F)(F)F)c1")
"> 100 µM"

---

- Tested on: OVCAR-5 ovarian
- Protocol: NCI tumour cell line growth inhibition, 48 h
Recorded Endpoint: GI50

>>> value_observed("CCC[CH2][Sn]1([CH2]CCC)[O]C(=O)CN=Cc2ccccc2[O]1")
"1.63 µM"
>>> value_observed("COc1ccc(-n2c3c(c4c(CN(C)C)c(O)c(C)cc42)CCc2ccccc2C3=O)cc1")
"35.2 µM"
>>> value_observed("O=C(/C=C\\c1ccc2ccccc2n1)c1cc(Cl)ccc1O")
"14.3 µM"

---

# Lookup of reported TGI keyed by entry
- Test system: SK-MEL-2 melanoma
- Protocol: NCI tumour cell line growth inhibition, 48 h
Recorded Endpoint: TGI (µM)

>>> value_observed("COc1ccc(C2=CN3CCC[C@H]3C=C2c2cc(O)c(OC)c(OC)c2)cc1OC")
0.0161
>>> value_observed("CC[C@@]1(O)C(=O)OCc2c1cc1n(c2=O)Cc2cc3c(NC(=O)CN)cccc3nc2-1")
14.8
>>> value_observed("COc1cc(C2S/C(=C/c3ccccc3)C(=O)N2c2cccc([N+](=O)[O-])c2)cc(OC)c1OC (centres undefined)")
67.9
>>> value_observed("CC(C)(C)c1cc(C2COC(=O)COCC(=O)OCCOCCOCCO2)cc(C(C)(C)C)c1O (centres undefined)")
90.3
>>> value_observed("CCC(=O)c1ccc2c(c1)N(CCCN1CCN(CCO)CC1)c1ccccc1S2")
33.4
>>> value_observed("CC1(C)Cc2c(Br)c(Br)c(Br)c(OCC(O)CN3CCOCC3)c2O1 (centres undefined)")
23.8

---

- Test system: MDA-MB-231 breast
- Protocol: NCI tumour cell line growth inhibition, 48 h
Recorded Endpoint: TGI

>>> value_observed("CC(C)(NC1=NCCO1)c1ccccc1")
"> 100 µM"
>>> value_observed("CN(C)CCNC(=O)c1nc([N+](=O)[O-])cn1C")
"> 100 µM"
>>> value_observed("COc1ccc(-c2csc3c2-n2cccc2C3=O)cc1O")
"> 100 µM"
>>> value_observed("CCS(=O)(=O)c1c2cc(OC)ccc2nc2ccc(OC)cc12")
"> 100 µM"
>>> value_observed("O=C(NN1C(=O)C=CC1=O)c1ccccc1Nc1ccccc1C(=O)NN1C(=O)C=CC1=O")
"> 100 µM"
>>> value_observed("Nc1nc2cc(CNc3ccc(C(=O)NC(CCC(=O)O)C(=O)O)cc3)ccc2nc1-c1ccccc1 (configuration not stated)")
"> 10 µM"
>>> value_observed("Cc1ccc(Oc2nc3ccccc3cc2-c2nnc(Cn3c(COc4ccccc4)nc4ccccc43)o2)cc1")
"4.62 µM"

---

- System: SNB-19 CNS
- Protocol: NCI tumour cell line growth inhibition, 48 h; in the data active means GI50 below about 0.43 µM; inactive means the rest
Outcome codes: class 1 for active, class 0 for inactive

>>> category_label("N/C(=N\\c1nc2ccccc2s1)NC(=O)Nc1cccc2ccccc12")
"class 0"
>>> category_label("CCCCCCN1CCN(Cc2ccc(N(CC)CC)cc2)C(=O)C1=O")
"class 0"
>>> category_label("Nc1ccc(-n2c(=O)oc3ccc(Cl)cc3c2=O)c(Cl)c1")
"class 1"
>>> category_label("COc1cc(-c2n/c(=C\\c3c(O)[nH]c4ccccc34)cc3c2=Nc2ccccc2-3)cc(OC)c1OC")
"class 0"
>>> category_label("Cc1ccc(Oc2nc3ccccc3cc2-c2nnc(Cn3c(COc4ccccc4)nc4ccccc43)o2)cc1")
"class 0"
>>> category_label("CCOC(=O)C1=C(c2ccccc2)N(c2ccc(OC)cc2)[C@]2(C#N)C(O)=C(Cl)C(Cl)=C(O)[C@]12C#N")
"class 0"
>>> category_label("CCCCCCCCCCCCCCCCn1cc[n+](Cc2ccccc2)c1C")
"class 0"
>>> category_label("COc1ccc(-c2ccccc2)cc1-c1c(Nc2cc(Cl)cc(Cl)c2O)c(=O)c1=O")
"class 0"
>>> category_label("O=C(/C=C\\c1ccc2ccccc2n1)c1cc(Cl)ccc1O")
"class 0"
>>> category_label("Cc1ccc(F)cc1NC(=O)c1cc(Cl)ccc1Nc1ccccc1")
"class 0"

---

- System: SNB-75 CNS
- Protocol: NCI tumour cell line growth inhibition, 48 h; in the data active = GI50 below about 0.43 µM; inactive = the rest
Outcome codes: active, inactive

>>> category_label("COc1ccc(/C=C\\c2cc(OC)c(OC)c(OC)c2)cc1OCC(=O)Nc1nc2ccc(OC(F)(F)F)cc2s1")
"inactive"
>>> category_label("N=C(N)c1ccc(-c2ccc(-c3ccc(F)cc3)o2)o1")
"inactive"
>>> category_label("COc1ccc2[nH]cc(-c3nc(-c4c[nH]c5ccncc45)cs3)c2c1")
"inactive"
>>> category_label("Cc1ccc2[nH]c(C(=O)NN3C(=O)C(C)SC34CCCCC4C)c(-c3ccccc3)c2c1 (stereo unspecified)")
"inactive"
>>> category_label("NC1=NC(c2ccc(F)cc2)C2=C(N1)c1ccc3ccccc3c1OCC2 (stereo unspecified)")
"inactive"
>>> category_label("Cc1ccc(F)cc1NC(=O)c1cc(Cl)ccc1Nc1ccccc1")
"inactive"
>>> category_label("CCC(=O)c1ccc2c(c1)N(CCCN1CCN(CCO)CC1)c1ccccc1S2")
"inactive"
>>> category_label("OCc1ccc(Oc2c3ccccc3nc3occc23)cc1")
"inactive"
>>> category_label("CO/N=C(/COc1c(-c2ccccc2)oc2ccccc2c1=O)c1ccc(F)cc1")
"inactive"
>>> category_label("COc1ccc(C2=C(c3cc(OC)c(OC)c(OC)c3)C(=O)OC2)cc1OC")
"inactive"
>>> category_label("C=C(C)[C@@H]1CC[C@]2(C(=O)NCCNCCNCCN)CC[C@]3(C)[C@H](CC[C@@H]4[C@@]5(C)CCC(=O)C(C)(C)[C@@H]5CC[C@]43C)[C@@H]12")
"inactive"
>>> category_label("COc1ccc2c(c1)[C@@]1(C)CCC3c4ccc(O)cc4CCC3C1C2 (stereo partly specified)")
"inactive"
>>> category_label("O=[N+]([O-])c1cccc(-c2cc(-c3cc(Br)ccc3O)[nH]n2)c1")
"inactive"
>>> category_label("COc1cc(/C=C2\\C(=O)Nc3ccccc32)cc(OC)c1OC")
"inactive"
>>> category_label("CNCCOC(=O)/C=C1/CCC2C(C(O)CC3C(C)(C(=O)OC)CCCC23C)C1C (stereo unspecified)")
"active"
>>> category_label("Cc1cn2c(=O)n(c1=O)Cc1ccccc1C2")
"inactive"

---

- System: NCI-H23 lung
- Protocol: NCI tumour cell line growth inhibition, 48 h
Recorded Endpoint: TGI

>>> value_observed("O=c1[nH]c2ccccc2c2oc(-c3ccccc3)nc12")
"> 100 µM"
>>> value_observed("CC1(C)[C@@H]2C[C@H]1C(Cc1cccc(C[C@H]3c4cc(-c5ccccn5)ncc4[C@H]4C[C@@H]3C4(C)C)c1)c1cc(-c3ccccn3)ncc12 (stereo partly drawn)")
"> 63.9 µM"
>>> value_observed("c1cncc(CNc2ncn[nH]2)c1")
"> 100 µM"

---

- System: NCI-H522 lung
- Protocol: NCI tumour cell line growth inhibition, 48 h
# Lookup of reported TGI keyed by entry
Recorded Endpoint: TGI

>>> value_observed("CN1CCCCC(C(O)(c2ccccc2)c2ccccc2)C1=O (stereo not given)")
"> 100 µM"
>>> value_observed("CCOC(=O)C(=Cn1c(=S)[nH]c2ccc([N+](=O)[O-])cc21)C(=O)OCC")
"> 100 µM"
>>> value_observed("O=C(O)c1ccc(C2C3C=CC(C3)C2[N+](=O)[O-])cc1 (stereo not given)")
"> 100 µM"
>>> value_observed("COc1ccc(C2c3cc4c(cc3OC(N3CCCCC3)C2C)OCO4)cc1 (stereo not given)")
"> 100 µM"
>>> value_observed("COc1cc(/C=C/C(=O)OC[C@H](Br)[C@H](OC(C)=O)c2ccc3c(c2)OCO3)cc(OC)c1OC")
"> 100 µM"
>>> value_observed("O=c1[nH]c2ccccc2c2oc(-c3ccccc3)nc12")
"> 100 µM"
>>> value_observed("CC(C)(NC1=NCCO1)c1ccccc1")
"> 100 µM"
>>> value_observed("COc1ccc(-c2cc(-c3nnc(SCC(=O)Nc4ccc(C(C)=O)cc4)o3)c3ccccc3n2)cc1")
"> 100 µM"
>>> value_observed("CC(=N\\N=C\\c1ccccn1)/C(C)=N/N=C(C)/C(C)=N/N=C(C)/C(C)=N/N=C/c1ccccn1")
"> 100 µM"
>>> value_observed("COc1ccc2c(c1)-c1oc3ccccc3c(=O)c1CO2")
"> 100 µM"
>>> value_observed("CN(CCN(C)C(=O)CCOS(C)(=O)=O)C(=O)CCOS(C)(=O)=O")
"> 100 µM"
>>> value_observed("CC(C)(C)OC(=O)NCC(=O)N1CCCN(C(=O)CNC(=O)OC(C)(C)C)CC1")
"> 100 µM"
>>> value_observed("Cc1n(CC(=O)c2ccccc2)nc2sc(N)n[n+]12")
"> 100 µM"
>>> value_observed("O=C(O)/C=C/C(=O)O")
"> 100 µM"
>>> value_observed("CN(C)S(=O)(=O)c1ccc(Nc2ccc(O)c3c2C(=O)c2c([N+](=O)[O-])ccc(O)c2C3=O)cc1")
"> 100 µM"
>>> value_observed("O=C(O)CCCNS(=O)(=O)c1ccc2ccccc2c1")
"> 100 µM"
>>> value_observed("CC1CC2(CCC1OCc1ccccc1)OCCO2 (stereo not given)")
"> 100 µM"
>>> value_observed("O=C(O)c1ccc(Nc2nc3ccccc3nc2C(=O)O)cc1")
"> 100 µM"
>>> value_observed("CC(C)CCC[C@@H](C)[C@H]1CCC2C3=CCC4C(=O)C=CC(=O)C4C3CC[C@@]21C (stereo not given in full)")
"> 100 µM"
>>> value_observed("CCOc1cc(C2SCC(=O)N2c2nc3cc4sc(N5C(=O)CSC5c5ccc(O)c(OCC)c5)nc4cc3s2)ccc1O (stereo not given)")
"> 100 µM"

src = PubChem BioAssay (NCI)
